- Tested on: T-47D breast
- assay_explanation: NCI tumour cell line growth inhibition, 48 h
Label class 1 for high-side TGI (at or above 30 µM) and class 0 for low-side TGI (below it).

{"columns": ["molecule", "label"],
 "data": [
  ["C=C1C(=O)O[C@H]2[C@H]1CC/C(Cn1cc(-c3cc(C(F)(F)F)cc(C(F)(F)F)c3)nn1)=C\\CC[C@@]1(C)O[C@@H]21", "class 0"],
  ["COc1ccc(-c2c(=O)[nH]n3c(=S)nc(-c4ccccc4)[nH]c23)cc1OC", "class 1"],
  ["C/C(=N\\Nc1cc(C)c2cc(C)ccc2n1)c1ccccn1", "class 0"],
  ["O=c1ccc2nc(-c3ccccc3)nn(-c3ccccn3)c-2c1", "class 0"],
  ["COc1cc2cc(Oc3ccc(NC(=O)Nc4cccc(C(F)(F)F)c4)cc3)c(C)nc2cc1OC", "class 0"],
  ["COc1ccc(C(=O)Cn2c(C(=O)/C=C/c3ccco3)nc3ccccc32)cc1", "class 1"],
  ["Nc1nc(N)c(NC(=O)CCCO)c(=O)[nH]1", "class 1"],
  ["O/C(=C\\c1nc2ccccc2nc1/C=C(\\O)c1ccc(Cl)cc1)c1ccccc1", "class 1"],
  ["CCCc1cc2c(=O)c(C(=O)OC)c[nH]c2cc1N(CC)CC", "class 1"],
  ["COc1cc2c3c(n(CCCN)c(=O)c2cc1OC)-c1cc2c(cc1/C3=C\\CCN)OCO2", "class 1"],
  ["N=C(c1ccc2ccccc2c1)c1ccccc1Cc1ccccc1", "class 1"],
  ["COc1ccc2nc3ccc(OC)cc3c(SCc3ccc([N+](=O)[O-])cc3)c2c1", "class 1"],
  ["Cc1nc2sc3ccccc3n2c(=O)c1N=Nc1ccc(Br)cc1", "class 1"],
  ["O=C(Nc1cccc(Cl)c1)c1ccc(NC2=C(Cl)C(=O)N(Cc3ccccc3)C2=O)cc1", "class 1"],
  ["O=C1c2ccccc2C(=O)c2c(Nc3ccc4c5c(cccc35)C(=O)c3ccccc3-4)cccc21", "class 1"],
  ["CC(C)(C)c1cc(-c2cc(C(C)(C)C)n(-c3ccccc3)n2)nn1-c1ccccc1", "class 1"],
  ["CC(C)CC1C(=O)NCCC(NC(=O)C(N)Cc2ccc(O)cc2)C(=O)NC(Cc2ccccc2)C(=O)NC(Cc2ccccc2)NC1=O (stereo unspecified)", "class 1"],
  ["CC(C)(C)c1cc(C2NCCO2)cc(C(C)(C)C)c1O (stereo unspecified)", "class 0"],
  ["Nc1nc(Cl)c2ncn(Cc3ccc(CCl)cc3)c2n1", "class 1"],
  ["Cc1c(C)c2c(c(N)c1C#N)C(=O)N(Nc1ccccc1)C2=O", "class 1"],
  ["O=S1CCS(=O)CCS(=O)CC1 (stereo unspecified)", "class 1"],
  ["O=C(c1ccco1)c1nc2cc(Cl)ccc2[n+]([O-])c1C(F)(F)F", "class 1"],
  ["Cc1ccc(C)n1-n1c(Cc2ccccc2)n[nH]c1=O", "class 1"],
  ["O=c1c2ccccc2n(C[C@H]2CO2)c2ccccc12", "class 0"],
  ["COC(=O)c1c2c(c(C)[n+]([O-])c1C)C(=O)C=C(NCc1ccc(F)c(Cl)c1)C2=O", "class 0"],
  ["COc1cc(C)c(Cl)cc1C1=NN(c2ccc(S(N)(=O)=O)cc2)C(/C=C/c2ccccc2)C1 (stereo unspecified)", "class 0"],
  ["c1cc(Sc2nc(Sc3ccncc3)nc(Sc3ccncc3)n2)ccn1", "class 1"],
  ["Nc1c(Br)cc(Br)c2c1[nH]c(=O)c1ccccc12", "class 0"]
]}
